Quick reference for IC50 among some compounds
Tested on: PC3 cells
assay.procedure: MTT cytotoxicity assay, PC3 (p53 neg)
Assay type: cell-based
assay.setup: 48 h
measurement.name: IC50

{"compound": "CN1C[C@H](c2ccncc2)[C@]2(NC(=S)N(c3ccccc3)C2=O)[C@]12C(=O)Nc1ccc(Br)cc12 (racemic)", "measurement.name": "IC50", "result": "> 100 µM"}
{"compound": "COc1ccc(N2C(=O)[C@]3(NC2=S)[C@@H](c2cccc(Cl)c2)CN(C)[C@@]32C(=O)Nc3ccccc32)cc1Cl (racemic)", "measurement.name": "IC50", "result": "> 100 µM"}
{"compound": "COc1ccc([C@H]2CN(C)[C@@]3(C(=O)Nc4ccc(Br)cc43)[C@@]23NC(=S)N(c2ccc(O)cc2)C3=O)cc1OC (racemic)", "measurement.name": "IC50", "result": "30 µM"}
{"compound": "C=CCN1C(=O)[C@]2(NC1=S)[C@@H](c1cccc(Cl)c1)CN(C)[C@@]21C(=O)Nc2ccccc21 (racemic)", "measurement.name": "IC50", "result": "> 50 µM"}
{"compound": "CN1C[C@H](c2ccccc2)[C@]2(NC(=S)N(c3ccccc3)C2=O)[C@]12C(=O)Nc1ccc(Br)cc12 (racemic)", "measurement.name": "IC50", "result": "4.6 µM"}
{"compound": "CN1C[C@H](c2ccccc2Cl)[C@]2(NC(=S)N(c3ccccc3)C2=O)[C@]12C(=O)Nc1ccccc12 (racemic)", "measurement.name": "IC50", "result": "> 100 µM"}
{"compound": "CN1C[C@H](c2cccc(Cl)c2)[C@]2(NC(=S)N(c3ccccc3)C2=O)[C@]12C(=O)Nc1ccc(Br)cc12 (racemic)", "measurement.name": "IC50", "result": "> 100 µM"}
{"compound": "CN1C[C@H](c2ccccc2Cl)[C@]2(NC(=S)N(c3ccc(O)cc3)C2=O)[C@]12C(=O)Nc1ccccc12 (racemic)", "measurement.name": "IC50", "result": "> 100 µM"}
{"compound": "CN1C[C@H](c2ccc(Cl)cc2)[C@]2(NC(=S)N(c3ccc(Cl)cc3)C2=O)[C@]12C(=O)Nc1ccc(Cl)cc12 (racemic)", "measurement.name": "IC50", "result": "> 100 µM"}
{"compound": "COc1ccc(C2=N[C@@H](c3ccc(Cl)cc3)[C@@H](c3ccc(Cl)cc3)N2C(=O)N2CCNC(=O)C2)c(OC(C)C)c1 [Nutlin-3a, reference compound]", "measurement.name": "IC50", "result": "28.9 µM"}
{"compound": "CN1C[C@H](c2ccc(Cl)cc2)[C@]2(NC(=S)N(c3ccc(F)c(Cl)c3)C2=O)[C@]12C(=O)Nc1ccc(Cl)cc12 (racemic)", "measurement.name": "IC50", "result": "> 100 µM"}
{"compound": "CC(c1ccccc1)N1C(=O)C2(NC1=S)C(c1ccccc1Cl)CN(C)C21C(=O)Nc2ccc(Br)cc21 (mixture of isomers)", "measurement.name": "IC50", "result": "> 100 µM"}
{"compound": "CN1CC(c2ccc(Cl)cc2)C2(NC(=S)N(c3ccc(O)cc3)C2=O)C12C(=O)Nc1ccc(Br)cc12 (stereo not drawn)", "measurement.name": "IC50", "result": "> 100 µM"}
{"compound": "COc1ccc([C@H]2CN(C)[C@@]3(C(=O)Nc4ccccc43)[C@@]23NC(=S)N(c2ccc(F)c(Cl)c2)C3=O)cc1OC (racemic)", "measurement.name": "IC50", "result": "10.2 µM"}
{"compound": "COc1ccc(N2C(=O)[C@]3(NC2=S)[C@@H](c2cccc(Cl)c2)CN(C)[C@@]32C(=O)Nc3ccccc32)cc1 (racemic)", "measurement.name": "IC50", "result": "> 100 µM"}
{"compound": "CN1C[C@H](c2cccc(C=O)c2)[C@]2(NC(=S)N(c3ccccc3)C2=O)[C@]12C(=O)Nc1ccc(Cl)cc12 (racemic)", "measurement.name": "IC50", "result": "> 100 µM"}
{"compound": "CCc1ccc([C@H]2CN(C)[C@@]3(C(=O)Nc4ccccc43)[C@@]23NC(=S)N(c2ccc(F)c(Cl)c2)C3=O)cc1 (racemic)", "measurement.name": "IC50", "result": "> 100 µM"}
{"compound": "COc1ccc(N2C(=O)[C@]3(NC2=S)[C@@H](c2cccc(Cl)c2)CN(C)[C@@]32C(=O)Nc3ccc(Br)cc32)cc1 (racemic)", "measurement.name": "IC50", "result": "> 100 µM"}
{"compound": "CN1C[C@H](c2ccccn2)[C@]2(NC(=S)N(c3ccccc3)C2=O)[C@]12C(=O)Nc1ccc(Br)cc12 (racemic)", "measurement.name": "IC50", "result": "> 100 µM"}
{"compound": "C#CCOc1ccc([C@H]2CN(C)[C@@]3(C(=O)Nc4ccc(Br)cc43)[C@@]23NC(=S)N(c2ccc(OCC)cc2)C3=O)cc1 (racemic)", "measurement.name": "IC50", "result": "> 100 µM"}
{"compound": "CN1C[C@H](C2CCCCC2)[C@]2(NC(=S)N(c3ccccc3)C2=O)[C@]12C(=O)Nc1ccccc12 (racemic)", "measurement.name": "IC50", "result": "> 100 µM"}
{"compound": "CN1C[C@H](c2ccncc2)[C@]2(NC(=S)N(c3ccccc3)C2=O)[C@]12C(=O)Nc1ccc(Cl)cc12 (racemic)", "measurement.name": "IC50", "result": "> 100 µM"}
{"compound": "COc1ccc(C2CN(C)C3(C(=O)Nc4ccc(Cl)cc43)C23NC(=S)N(c2ccc(Cl)cc2)C3=O)cc1OC (stereo not drawn)", "measurement.name": "IC50", "result": "> 100 µM"}
{"compound": "CN1CC(c2ccc(Cl)cc2)C2(NC(=S)N(c3ccc(O)cc3)C2=O)C12C(=O)Nc1ccccc12 (stereo not drawn)", "measurement.name": "IC50", "result": "4.65 µM"}

---

Tested on: LNCaP cells
assay.procedure: MTT cytotoxicity assay, LNCaP (p53 pos)
Type: cell-based
assay.setup: 48 h
Quick reference for IC50 among some compounds
measurement.name: IC50

{"compound": "CN1C[C@H](c2ccc(Cl)cc2)[C@]2(NC(=S)N(c3ccc(F)c(Cl)c3)C2=O)[C@]12C(=O)Nc1ccc(Cl)cc12 (racemic) [Compound 42]", "study.target": "LNCaP cells", "result": "> 100 µM"}
{"compound": "CC(c1ccccc1)N1C(=O)C2(NC1=S)C(c1ccccc1Cl)CN(C)C21C(=O)Nc2ccc(Br)cc21 (mixture of isomers) [Compound 62]", "study.target": "LNCaP cells", "result": "> 100 µM"}
{"compound": "C=CCN1C(=O)[C@]2(NC1=S)[C@@H](c1ccccn1)CN(C)[C@@]21C(=O)Nc2ccccc21 (racemic) [Compound 67]", "study.target": "LNCaP cells", "result": "> 50 µM"}
{"compound": "CCOc1ccc([C@H]2CN(C)[C@@]3(C(=O)Nc4ccc(Br)cc43)[C@@]23NC(=S)N(c2ccc(F)cc2)C3=O)cc1 (racemic) [Compound 61]", "study.target": "LNCaP cells", "result": "> 100 µM"}
{"compound": "CN1C[C@H](c2ccc(Cl)c(Cl)c2)[C@]2(NC(=S)N(c3ccccc3)C2=O)[C@]12C(=O)Nc1ccc(Br)cc12 (racemic) [Compound 16]", "study.target": "LNCaP cells", "result": "> 100 µM"}
{"compound": "COc1ccc([C@H]2CN(C)[C@@]3(C(=O)Nc4ccc(Cl)cc43)[C@@]23NC(=S)N(c2ccc(O)cc2)C3=O)cc1OC (racemic) [Compound 57]", "study.target": "LNCaP cells", "result": "17 µM"}
{"compound": "CN1C[C@H](c2ccccn2)[C@]2(NC(=S)N(c3ccccc3)C2=O)[C@]12C(=O)Nc1ccc(Cl)cc12 (racemic) [Compound 18]", "study.target": "LNCaP cells", "result": "2.1 µM"}
{"compound": "CN1C[C@H](c2ccccc2Cl)[C@]2(NC(=S)N(c3ccc(O)cc3)C2=O)[C@]12C(=O)Nc1ccc(Cl)cc12 (racemic) [Compound 55]", "study.target": "LNCaP cells", "result": "7 µM"}
{"compound": "C=CCN1C(=O)[C@]2(NC1=S)[C@@H](c1cccc(Cl)c1)CN(C)[C@@]21C(=O)Nc2ccccc21 (racemic) [Compound 68]", "study.target": "LNCaP cells", "result": "> 50 µM"}
{"compound": "CN1C[C@H](c2cccc(Cl)c2)[C@]2(NC(=S)N(c3ccccc3)C2=O)[C@]12C(=O)Nc1ccccc12 (racemic) [Compound 14]", "study.target": "LNCaP cells", "result": "> 100 µM"}
{"compound": "COc1ccc(N2C(=O)[C@]3(NC2=S)[C@@H](c2cccc(Cl)c2)CN(C)[C@@]32C(=O)Nc3ccccc32)cc1 (racemic) [Compound 32]", "study.target": "LNCaP cells", "result": "> 100 µM"}
{"compound": "CN1C[C@H](c2ccccc2)[C@]2(NC(=S)N(c3ccccc3)C2=O)[C@]12C(=O)Nc1ccc(Br)cc12 (racemic) [Compound 5]", "study.target": "LNCaP cells", "result": "2.2 µM"}
